B1: PhoQ; a variant is named by its letters at X, in order, P23837 (parent)
chain: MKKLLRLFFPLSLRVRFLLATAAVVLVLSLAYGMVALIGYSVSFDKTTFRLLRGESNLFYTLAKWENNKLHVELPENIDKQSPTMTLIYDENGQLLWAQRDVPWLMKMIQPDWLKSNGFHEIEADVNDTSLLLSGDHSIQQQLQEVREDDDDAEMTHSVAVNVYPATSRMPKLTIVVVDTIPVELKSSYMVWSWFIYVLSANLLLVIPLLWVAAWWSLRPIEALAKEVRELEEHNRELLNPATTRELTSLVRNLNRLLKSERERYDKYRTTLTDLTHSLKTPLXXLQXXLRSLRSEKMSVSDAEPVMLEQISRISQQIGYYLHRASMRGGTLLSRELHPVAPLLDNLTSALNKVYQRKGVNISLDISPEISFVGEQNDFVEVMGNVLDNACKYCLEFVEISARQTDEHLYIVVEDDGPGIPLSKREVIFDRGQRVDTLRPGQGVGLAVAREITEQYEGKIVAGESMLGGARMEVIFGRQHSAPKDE

- Variants of: B1
- Measurement Notes: enrichment ratio after two sorts for PhoP signalling (ratio (wild type AVST 3.29)); higher = more functional
- Measurement Context: with PhoP (E. coli)
Over roughly 140,000 sequences, “enrichment ratio after two sorts for PhoP signalling” has its median near 0; the highest 2% begin near 11. The full list was thinned out, with the highest values kept by preference.
Label scheme for enrichment ratio: lower than 10 is Not satisfied, 10 and above is Satisfied.

Past entries and their recorded results:
>  <Mutant>
MNGL

>  <Discrete Label>
Not satisfied

$$$$
>  <Mutant>
PNHN

>  <Discrete Label>
Not satisfied

$$$$
>  <Mutant>
MNSC

>  <Discrete Label>
Not satisfied

$$$$
>  <Mutant>
MNSS

>  <Discrete Label>
Not satisfied

$$$$
>  <Mutant>
GITC

>  <Discrete Label>
Not satisfied

$$$$

Prompt line: State whether the measured enrichment ratio reaches 10, counting equality as reaching it, for HRPL
Response line: Not satisfied

Prompt line: State whether the measured enrichment ratio reaches 10, counting equality as reaching it, for KDFS
Response line: Not satisfied
